Experiment: Pharmacokinetics in mice
Assay type: in vivo, BALB/c hairy mice
Conditions: both sexes, BALB/c hairy, mouse, plasma, intravenous, 2 mg/kg, read-out: volume of distribution
metric: Vd (L/kg)
State just the number; it will be interpreted in L/kg.

# input What value of Vd has been recorded for this entry: `Cc1cnc(N[C@H]2CC[C@H](N)CC2)nc1-c1cnc2ccc(-c3ccccc3)cn12`
# output 1.71

###

Experiment: Drug concentration in plasma and tumor 4 h post final dose
Type: in vivo, MV4-11 tumor-bearing mice
Settings: BALB/c nude (nu/nu), mouse, plasma, oral, 75 mg/kg, 75 mg/kg orally 5 days, 4 h post final dose, mouse 3; read-out: Plasma concentration
metric: concentration at 4 h (ng/mL)
Field format: number, assumed ng/mL, no unit text.

# input Give its concentration at 4 h value. Item: `Cc1cnc(N[C@H]2CC[C@H](N)CC2)nc1-c1cnc2ccc(-c3ccccc3)cn12`
# output 1090

###

Assay: Caco-2 permeability
Format: in vitro ADME
Conditions: human, Caco-2, Papp B-A/Papp A-B
metric: efflux ratio
Number only, please.

# input Quick one: efflux ratio of Cc1cnc(N[C@H]2CC[C@H](N)CC2)nc1-c1cnc2ccc(-c3ccccc3)cn12 [CDDD11-8] ?
# output 4.9

###

Test: Pharmacokinetics in mice
Format: in vivo, BALB/c hairy mice
Settings: both sexes, BALB/c hairy, mouse, plasma, PO 100 mg/kg, 4.9 h, read-out: Plasma Conc.
Experimental: Pharmacokinetics. The pharmacokinetics of CDDD11-8 was determined in mice after single oral (PO) and intravenous (IV) doses. […] The concentrations in these samples were measured by validated LC-MS/MS methods (limit of quantification = 5 ng/mL). […] Acceptability of models was evaluated from values for Akaike Information Criterion (AIC), Schwarz’s Bayesian Criterion (SIB), and % Coefficient of Variance (CV) for parameters, where lower values were indicative of a better fit. […]
metric: concentration at 4.9 h (ng/mL)
Quick reminder: number only, in ng/mL, skip the unit.

# input Please report the recorded concentration at 4.9 h for Cc1cnc(N[C@H]2CC[C@H](N)CC2)nc1-c1cnc2ccc(-c3ccccc3)cn12 [CDDD11-8] .
# output 4830

###

Target: TNIK (Homo sapiens)
Sequence (Q9UKE5 whole entry): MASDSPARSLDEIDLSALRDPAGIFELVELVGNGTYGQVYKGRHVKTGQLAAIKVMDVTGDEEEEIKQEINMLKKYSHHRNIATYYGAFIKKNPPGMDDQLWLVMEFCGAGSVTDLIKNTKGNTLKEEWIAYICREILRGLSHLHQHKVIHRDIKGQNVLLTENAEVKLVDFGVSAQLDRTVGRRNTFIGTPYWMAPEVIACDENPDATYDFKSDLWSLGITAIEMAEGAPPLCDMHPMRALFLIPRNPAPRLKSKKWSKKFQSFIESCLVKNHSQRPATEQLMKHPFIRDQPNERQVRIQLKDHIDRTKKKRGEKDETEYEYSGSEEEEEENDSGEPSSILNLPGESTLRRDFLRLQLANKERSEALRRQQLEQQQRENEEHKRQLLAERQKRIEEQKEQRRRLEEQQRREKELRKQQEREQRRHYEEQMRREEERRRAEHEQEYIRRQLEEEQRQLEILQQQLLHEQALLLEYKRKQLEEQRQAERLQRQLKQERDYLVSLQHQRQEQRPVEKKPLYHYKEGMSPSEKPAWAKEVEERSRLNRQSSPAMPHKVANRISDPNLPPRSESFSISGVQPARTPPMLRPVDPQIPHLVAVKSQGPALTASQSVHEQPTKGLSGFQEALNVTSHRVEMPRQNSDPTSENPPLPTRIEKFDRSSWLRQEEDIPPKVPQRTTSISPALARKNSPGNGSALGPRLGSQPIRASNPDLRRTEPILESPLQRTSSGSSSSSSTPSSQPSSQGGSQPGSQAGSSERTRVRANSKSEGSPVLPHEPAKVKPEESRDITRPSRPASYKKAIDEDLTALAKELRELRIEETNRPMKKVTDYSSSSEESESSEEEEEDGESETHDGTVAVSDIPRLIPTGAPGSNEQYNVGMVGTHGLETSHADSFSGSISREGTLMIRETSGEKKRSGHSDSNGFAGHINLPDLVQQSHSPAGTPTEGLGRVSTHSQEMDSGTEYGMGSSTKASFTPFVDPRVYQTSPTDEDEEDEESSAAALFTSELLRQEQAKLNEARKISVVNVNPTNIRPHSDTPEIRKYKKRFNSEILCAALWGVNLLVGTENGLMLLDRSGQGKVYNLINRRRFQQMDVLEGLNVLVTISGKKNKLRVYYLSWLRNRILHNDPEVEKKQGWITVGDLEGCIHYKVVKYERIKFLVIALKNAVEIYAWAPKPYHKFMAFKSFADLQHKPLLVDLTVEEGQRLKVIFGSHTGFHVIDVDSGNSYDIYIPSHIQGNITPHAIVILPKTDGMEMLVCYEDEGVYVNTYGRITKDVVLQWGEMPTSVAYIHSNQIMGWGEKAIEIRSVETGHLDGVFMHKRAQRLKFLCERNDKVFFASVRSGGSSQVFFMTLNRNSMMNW
metric: pKi
Remember the convention: pKi equals -log10 of concentration in molar.

# input Could you share what pKi was measured for `Cc1cnc(N[C@H]2CC[C@H](N)CC2)nc1-c1cnc2ccc(-c3ccccc3)cn12` , tested on TNIK (Homo sapiens)?
# output 8.52

###

Assay: Drug concentration in plasma and tumor 4 h post final dose
Format: in vivo, MV4-11 tumor-bearing mice
Conditions: BALB/c nude (nu/nu), mouse, tumor, oral, 125 mg/kg, 125 mg/kg orally 5 days, 4 h post final dose, mouse 2; read-out: Tumor concentration
metric: concentration at 4 h (ng/g)
Numeric only. Scale: ng/g

# input # get_value(readout='concentration at 4 h', item= Cc1cnc(N[C@H]2CC[C@H](N)CC2)nc1-c1cnc2ccc(-c3ccccc3)cn12 [CDDD11-8] )
# output 2310

###

Test: Pharmacokinetics in mice
Format: in vivo, BALB/c hairy mice
Details: both sexes, BALB/c hairy, mouse, plasma, IV 2 mg/kg, 5.4 h, read-out: Plasma Conc.
metric: concentration at 5.4 h (ng/mL)
// return numeric value only (unit: ng/mL, not printed)

# input Tell me the measured concentration at 5.4 h of `Cc1cnc(N[C@H]2CC[C@H](N)CC2)nc1-c1cnc2ccc(-c3ccccc3)cn12` , please.
# output 3

###

Test: Pharmacokinetics in mice
Format: in vivo, BALB/c hairy mice
Settings: both sexes, BALB/c hairy, mouse, plasma, PO 100 mg/kg, 0.38 h, read-out: Plasma Conc.
metric: concentration at 0.38 h (ng/mL)
The reply should be a number in ng/mL, with the unit left off.

# input Which concentration at 0.38 h reading was recorded for the compound Cc1cnc(N[C@H]2CC[C@H](N)CC2)nc1-c1cnc2ccc(-c3ccccc3)cn12 [CDDD11-8] ?
# output 925

###

Assay: Partition coefficient by shake flask assay
Format: physicochemical
Details: octanol/aqueous phase, pH 7.4, read-out: Partition Coefficient LogD7.4 (octanol)
metric: logD

# input logD lookup needed for `Cc1cnc(N[C@H]2CC[C@H](N)CC2)nc1-c1cnc2ccc(-c3ccccc3)cn12` , thanks.
# output 1.87

###

Assay: Pharmacokinetics in mice
Format: in vivo, BALB/c hairy mice
Conditions: both sexes, BALB/c hairy, mouse, plasma, po, 100 mg/kg, oral 100 mg/kg, read-out: F (oral bioavailability)
metric: bioavailability (%)
Give just the numeric value; % need not be written.

# input What does the data say about its bioavailability? Entry: Cc1cnc(N[C@H]2CC[C@H](N)CC2)nc1-c1cnc2ccc(-c3ccccc3)cn12 [CDDD11-8]
# output 56

###

Assay: Pharmacokinetics in mice
Format: in vivo, BALB/c hairy mice
Settings: both sexes, BALB/c hairy, mouse, plasma, PO 100 mg/kg, 2.9 h, read-out: Plasma Conc.
metric: concentration at 2.9 h (ng/mL)
Numbers only; they are read as ng/mL.

# input // concentration at 2.9 h lookup, key: `Cc1cnc(N[C@H]2CC[C@H](N)CC2)nc1-c1cnc2ccc(-c3ccccc3)cn12`
# output 2480

###

Test: Pharmacokinetics in mice
Format: in vivo, BALB/c hairy mice
Details: both sexes, BALB/c hairy, mouse, plasma, IV 2 mg/kg, 4.1 h, read-out: Plasma Conc.
metric: concentration at 4.1 h (ng/mL)
Return type: number; implicit unit ng/mL.

# input Look up concentration at 4.1 h: Cc1cnc(N[C@H]2CC[C@H](N)CC2)nc1-c1cnc2ccc(-c3ccccc3)cn12 [CDDD11-8]
# output 11

###

Molecular target: FLT3-ITD (Homo sapiens, UniProt P36888, ITD)
Sequence (P36888 564-993, change not shown): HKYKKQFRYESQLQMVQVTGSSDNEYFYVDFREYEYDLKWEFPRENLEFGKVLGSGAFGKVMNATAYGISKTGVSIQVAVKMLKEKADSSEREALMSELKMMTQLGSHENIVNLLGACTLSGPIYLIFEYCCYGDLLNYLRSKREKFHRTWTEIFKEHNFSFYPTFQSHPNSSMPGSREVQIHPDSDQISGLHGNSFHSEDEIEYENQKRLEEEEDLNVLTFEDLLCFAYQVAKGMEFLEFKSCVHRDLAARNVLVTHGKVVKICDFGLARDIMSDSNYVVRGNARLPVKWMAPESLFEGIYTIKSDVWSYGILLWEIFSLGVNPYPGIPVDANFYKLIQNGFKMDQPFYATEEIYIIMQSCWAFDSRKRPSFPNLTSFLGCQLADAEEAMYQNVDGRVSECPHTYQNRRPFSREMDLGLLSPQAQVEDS
Experiment: ADP Glo kinase assay
Details: calculated from IC50 using the Cheng-Prusoff equation
metric: pKi
Remember the convention: pKi equals -log10 of concentration in molar.

# input Using the record for `Cc1cnc(N[C@H]2CC[C@H](N)CC2)nc1-c1cnc2ccc(-c3ccccc3)cn12` , report its pKi.
# output 7.89

###

Assay: Pharmacokinetics in mice
Type: in vivo, BALB/c hairy mice
Details: both sexes, BALB/c hairy, mouse, plasma, oral 10 mg/kg, ± standard error of the estimate, read-out: t½ (converted)
metric: half-life (min)
State just the number; it will be interpreted in min.

# input Which measured half-life value corresponds to `Cc1cnc(N[C@H]2CC[C@H](N)CC2)nc1-c1cnc2ccc(-c3ccccc3)cn12` ?
# output 40.8

###

Assay: Pharmacokinetics in mice
Assay type: in vivo, BALB/c hairy mice
Conditions: both sexes, BALB/c hairy, mouse, plasma, PO 100 mg/kg, 8.9 h, read-out: Plasma Conc.
metric: concentration at 8.9 h (µg/mL)
Number in µg/mL, nothing else.

# input What measured concentration at 8.9 h goes with Cc1cnc(N[C@H]2CC[C@H](N)CC2)nc1-c1cnc2ccc(-c3ccccc3)cn12 [CDDD11-8] ?
# output 0.854

###

Assay: Blood to plasma ratio
Assay type: in vitro ADME
Conditions: mouse, in mice
metric: blood plasma ratio
Answer with the value's number alone.

# input Requested read-out: blood plasma ratio. Entry: `Cc1cnc(N[C@H]2CC[C@H](N)CC2)nc1-c1cnc2ccc(-c3ccccc3)cn12`
# output 0.71

###

Experiment: Pharmacokinetics in mice
Assay type: in vivo, BALB/c hairy mice
Conditions: both sexes, BALB/c hairy, mouse, plasma, PO 10 mg/kg, 6.8 h, read-out: Plasma Conc.
metric: concentration at 6.8 h

# input Can you share its concentration at 6.8 h? I mean this molecule: Cc1cnc(N[C@H]2CC[C@H](N)CC2)nc1-c1cnc2ccc(-c3ccccc3)cn12 [CDDD11-8]
# output 3.4 ng/mL

###

Experiment: Pharmacokinetics in mice
Format: in vivo, BALB/c hairy mice
Conditions: both sexes, BALB/c hairy, mouse, IV 2 mg/kg, plasma, ± standard error of the estimate, read-out: CL (converted)
metric: clearance
The number alone won't do; follow it with the unit.

# input So what's the measured clearance for this one? `Cc1cnc(N[C@H]2CC[C@H](N)CC2)nc1-c1cnc2ccc(-c3ccccc3)cn12`
# output 36.8 mL/min/kg

###

Experiment: Pharmacokinetics in mice
Assay type: in vivo, BALB/c hairy mice
Details: both sexes, BALB/c hairy, mouse, plasma, IV 2 mg/kg, 7.7 h, read-out: Plasma Conc.
metric: concentration at 7.7 h
In your response, the unit should come after the numeric value.

# input What value of measured concentration at 7.7 h is listed for `Cc1cnc(N[C@H]2CC[C@H](N)CC2)nc1-c1cnc2ccc(-c3ccccc3)cn12` ?
# output 2.8 ng/mL

###

Assay: Pharmacokinetics in mice
Format: in vivo, BALB/c hairy mice
Conditions: both sexes, BALB/c hairy, mouse, plasma, PO 10 mg/kg, 3.3 h, read-out: Plasma Conc.
metric: concentration at 3.3 h (ng/mL)
Record the value in ng/mL, omitting the unit from your answer.

# input Item under review: `Cc1cnc(N[C@H]2CC[C@H](N)CC2)nc1-c1cnc2ccc(-c3ccccc3)cn12` . Reported concentration at 3.3 h?
# output 95
